Target: SST2 (Homo sapiens)
Construct: host or cells: PathHunter CHO-K1 SST2 cells
Sequence (P30874 whole entry): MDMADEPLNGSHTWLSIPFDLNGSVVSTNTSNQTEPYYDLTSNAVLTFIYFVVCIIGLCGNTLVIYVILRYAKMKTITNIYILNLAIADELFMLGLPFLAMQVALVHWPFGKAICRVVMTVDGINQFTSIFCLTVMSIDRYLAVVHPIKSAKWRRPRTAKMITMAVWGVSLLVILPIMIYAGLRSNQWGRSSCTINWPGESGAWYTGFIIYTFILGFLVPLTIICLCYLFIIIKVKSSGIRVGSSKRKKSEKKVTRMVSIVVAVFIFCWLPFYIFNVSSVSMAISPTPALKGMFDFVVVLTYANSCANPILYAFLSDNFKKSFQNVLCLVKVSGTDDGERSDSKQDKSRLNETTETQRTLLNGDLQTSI
Assay: PathHunter CHO-K1 SST2 internalization assay
Type: cell-based
Conditions: Internalization EC50 (nM), PathHunter CHO-K1 SST2, 90 min
measurement.name: EC50 (nM)

1. CC[C@@]1(O)C(=O)OCc2c1cc1n(c2=O)Cc2c-1nc1cc(F)c(C)c3c1c2[C@@H](NC(=O)OCc1ccc(NC(=O)[C@H](CCCNC(N)=O)NC(=O)[C@@H](NC(=O)CCOCCOCCOCCOCCC(=O)NCCNc2ncc(-c4cc(C)cc(F)c4)c(N4CCC(N)CC4)c2-c2nc4ccc(Cl)cc4[nH]2)C(C)C)cc1C(=O)NCCN)CC3 :: 5.6
2. CC[C@@]1(O)C(=O)OCc2c1cc1n(c2=O)Cc2c-1nc1cc(F)c(C)c3c1c2[C@@H](NC(=O)OCc1ccc(NC(=O)[C@H](CCCNC(N)=O)NC(=O)[C@@H](NC(=O)CCOCCC(=O)NCCNc2ncc(-c4cc(C)cc(F)c4)c(N4CCC(N)CC4)c2-c2nc4ccc(Cl)cc4[nH]2)C(C)C)cc1)CC3 :: 1.3
3. CC[C@@]1(O)C(=O)OCc2c1cc1n(c2=O)Cc2c-1nc1cc(F)c(C)c3c1c2[C@@H](NC(=O)OCc1ccc(NC(=O)[C@H](CCCNC(N)=O)NC(=O)[C@@H](NC(=O)CCOCCOCCOCCOCCC(=O)NCCNc2ncc(-c4cc(C)cc(F)c4)c(N4CCC(N)CC4)c2-c2nc4ccc(Cl)cc4[nH]2)C(C)C)cc1)CC3 :: 1
4. CCc1c2c(nc3ccc(OC(=O)NCCOCCOCCOCCOCCC(=O)NCCNc4ncc(-c5cc(C)cc(F)c5)c(N5CCC(N)CC5)c4-c4nc5ccc(Cl)cc5[nH]4)cc13)-c1cc3c(c(=O)n1C2)COC(=O)[C@]3(O)CC :: 3.15
5. CC[C@@]1(O)C(=O)OCc2c1cc1n(c2=O)Cc2c-1nc1cc(F)c(C)c3c1c2[C@@H](NC(=O)OCc1ccc(NC(=O)[C@H](CCCNC(N)=O)NC(=O)[C@@H](NC(=O)[C@H](CCC(=O)O)NC(=O)CCOCCC(=O)NCCNc2ncc(-c4cc(C)cc(F)c4)c(N4CCC(N)CC4)c2-c2nc4ccc(Cl)cc4[nH]2)C(C)C)cc1)CC3 :: 1.6
6. CC[C@@]1(O)C(=O)OCc2c1cc1n(c2=O)Cc2c-1nc1cc(F)c(C)c3c1c2[C@@H](NC(=O)OCc1ccc(NC(=O)[C@H](CCCNC(N)=O)NC(=O)[C@@H](NC(=O)CN2CCN(CC(=O)O)CCN(CC(=O)NCCOCCC(=O)NCCNc4ncc(-c5cc(C)cc(F)c5)c(N5CCC(N)CC5)c4-c4nc5ccc(Cl)cc5[nH]4)CC2)C(C)C)cc1)CC3 :: 3.9
7. CC[C@@]1(O)C(=O)OCc2c1cc1n(c2=O)Cc2c-1nc1cc(F)c(C)c3c1c2[C@@H](NC(=O)OCc1ccc(NC(=O)[C@H](CCCNC(N)=O)NC(=O)[C@@H](NC(=O)CCOCCOCCOCCOCCC(=O)NCCNc2ncc(-c4cc(C)cc(F)c4)c(N4CCC(N)CC4)c2-c2nc4ccc(Cl)cc4[nH]2)C(C)C)c(O[C@@H]2O[C@H](C(=O)O)[C@@H](O)[C@H](O)[C@H]2O)c1)CC3 :: 13
8. CC[C@@]1(O)C(=O)OCc2c1cc1n(c2=O)Cc2c-1nc1cc(F)c(C)c3c1c2[C@@H](NC(=O)CCOCCC(=O)NCCNc1ncc(-c2cc(C)cc(F)c2)c(N2CCC(N)CC2)c1-c1nc2ccc(Cl)cc2[nH]1)CC3 :: 0.77
